The measured values listed here are drawn from patent US11505543B2.

Below, each entry is listed alongside its reported CC50 at 4 day.
test: Compound cytotoxicity, XTT-based colorimetric assay
Format: cell-based
testParameters: human, uninfected MT2 cells, day 4, XTT

O=C(Cn1ccc(C2CC2)n1)N[C@@H](Cc1cc(F)cc(F)c1)c1nc2cc(-c3ccccc3Cl)ccc2c(=O)n1-c1ccc(S(=O)(=O)N2CCOCC2)cc1 [Example 145] ... > 0.5 µM
CC(C)c1ccc(-n2c([C@H](Cc3cc(F)cc(F)c3)NC(=O)Cn3nc(C(F)F)c4c3C(F)(F)[C@@H]3C[C@H]43)nc3cc(-c4nnn[nH]4)ccc3c2=O)cn1 [Example 7] ... > 1 µM
Cc1cc(Cl)ccc1-c1ccc2c(=O)n(-c3ccc(S(=O)(=O)N4CCOCC4)cc3)c([C@H](Cc3cc(F)cc(F)c3)NC(=O)Cn3nc(C(F)F)c4c3C(F)(F)[C@@H]3C[C@H]43)nc2c1 [Example 15] ... > 1 µM

Input: Returns the measured CC50 at 4 day for the input compound. Input: O=C(Cn1nc(C(F)F)c2c1C(F)(F)[C@@H]1C[C@H]21)N[C@@H](Cc1cc(F)cc(F)c1)c1nc2cc(-c3ccc(F)cc3F)ccc2c(=O)n1-c1ccc(S(=O)(=O)N2CCOCC2)cc1 [Example 22]
Output: > 1 µM

Input: Suppose we examine the compound O=C(Cn1ccc(C2CC2)n1)N[C@@H](Cc1cc(F)cc(F)c1)c1nc2cc(-c3ccccc3Oc3ccccc3)ccc2c(=O)n1-c1ccc(S(=O)(=O)N2CCOCC2)cc1 [Example 42] ; what CC50 at 4 day value has been reported?
Output: > 1 µM

Input: Consider the compound Cc1cccc(-c2ccc3c(=O)n(-c4ccc(Cl)c5c(NS(=O)(=O)C6CC6)nn(CC(F)F)c45)c([C@H](Cc4cc(F)cc(F)c4)NC(=O)Cn4nc(C(F)F)c5c4C(F)(F)[C@@H]4C[C@H]54)nc3c2)n1 [Example 158] and give its measured CC50 at 4 day.
Output: > 0.5 µM

Input: Requested field: CC50 at 4 day. Item: Cc1nccnc1-c1ccc2c(=O)n(-c3ccc(Cl)c4c(NS(C)(=O)=O)nn(CC(F)F)c34)c([C@H](Cc3cc(F)cc(F)c3)NC(=O)Cn3nc(C(F)F)c4c3C(F)(F)[C@@H]3C[C@H]43)nc2c1 (atropisomer, axis not shown; (aR)) [Example 125]
Output: > 0.5 µM

Input: What CC50 at 4 day value was documented for this compound, Cc1ncc(-c2ccc3c(=O)n(-c4ccc(Cl)c5c(NS(=O)(=O)C6CC6)nn(CC(F)F)c45)c([C@H](Cc4cc(F)cc(F)c4)NC(=O)Cn4nc(C(F)F)c5c4C(F)(F)[C@@H]4C[C@H]54)nc3c2)cn1 [Example 157] ?
Output: > 0.5 µM

Input: Would you kindly share the measured CC50 at 4 day for COc1c(F)cc(-c2ccc3c(=O)n(-c4ccc(Cl)c5c(NS(C)(=O)=O)nn(C)c45)c([C@H](Cc4cc(F)cc(F)c4)NC(=O)Cn4nc(C(F)F)c5c4C(F)(F)[C@@H]4C[C@H]54)nc3c2)cc1F (atropisomer, axis not shown; (aR)) [Example 70] ?
Output: > 1 µM
